Origin of values: patent US9000154B2

Target: ROCKII (1-543) (Homo sapiens)
Sequence (O75116 1-543): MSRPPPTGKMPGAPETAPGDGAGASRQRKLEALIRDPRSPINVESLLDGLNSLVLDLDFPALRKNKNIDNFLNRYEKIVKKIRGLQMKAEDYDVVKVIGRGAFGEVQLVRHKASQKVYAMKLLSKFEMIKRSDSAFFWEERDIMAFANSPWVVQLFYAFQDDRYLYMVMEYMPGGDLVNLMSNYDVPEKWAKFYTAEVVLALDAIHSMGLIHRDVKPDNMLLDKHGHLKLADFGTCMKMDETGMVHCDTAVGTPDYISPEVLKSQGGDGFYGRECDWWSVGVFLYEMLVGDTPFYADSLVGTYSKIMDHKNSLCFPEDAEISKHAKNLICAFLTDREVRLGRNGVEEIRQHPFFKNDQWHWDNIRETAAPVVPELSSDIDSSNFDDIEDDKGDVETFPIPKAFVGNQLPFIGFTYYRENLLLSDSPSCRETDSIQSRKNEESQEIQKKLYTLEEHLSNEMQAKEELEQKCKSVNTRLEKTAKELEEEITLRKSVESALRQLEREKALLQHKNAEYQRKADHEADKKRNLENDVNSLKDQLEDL
Assay: Luciferin-Luciferase Assay (PKLight ATP detection)
Format: biochemical
Set-up: ROCKII (1-543) (62,408 Da) was diluted in assay buffer
Conditions: 7.5 nM ROCKII (1-543), 750 nM ATP
For each entry below, report its pIC50 value.
Answers are plain numbers, as −log10 of the molar value.

Examples with their reported pIC50 follow.
compound=COCCN(C)[C@@H]1CCc2nc(NC(=O)c3cccc(Cn4cc(-c5ccc(C#N)cc5)cn4)c3)sc2C1 recordednumber=8.70
compound=N#Cc1ccc(-c2cn(Cc3cccc(C(=O)Nc4nc5c(s4)C[C@H](N)CC5)c3)nn2)cc1 recordednumber=8.66
compound=N#Cc1ccc(N2CCN(Cc3cccc(C(=O)Nc4nc5c(s4)C[C@@H](N4CCOCC4)CC5)c3)C2=O)cc1 recordednumber=8.70
compound="CN(CC(F)F)C1CCc2nc(NC(=O)c3cccc(Cn4cc(-c5ccc(C#N)cc5)cn4)c3)sc2C1 (centres unmarked)" recordednumber=8.14
compound=COCCN(C)[C@@H]1CCc2nc(NC(=O)c3cccc(Cn4cc(-c5ccc(C#N)cc5)nn4)c3)sc2C1 recordednumber=8.19

Batch of 4 compounds: report pIC50 for each.
1. CN(C)[C@H]1CCc2nc(NC(=O)c3cccc(CN4CCN(c5ccc(C#N)cc5)C4=O)c3)sc2C1
2. C[C@@H]1CN(C2CCc3nc(NC(=O)c4cccc(Cn5cc(-c6ccc(C#N)cc6)nn5)c4)sc3C2)C[C@H](C)O1 (some centres unmarked)
3. COCCN[C@@H]1CCc2nc(NC(=O)c3cccc(Cn4cc(-c5ccc(C#N)cc5)cn4)c3)sc2C1
4. N#Cc1ccc(-c2cn(Cc3cccc(C(=O)Nc4nc5c(s4)CC(N4CCC(F)CC4)CC5)c3)nn2)cc1 (centres unmarked)

1: 8.70; 2: 8.51; 3: 8.72; 4: 8.47

Batch of 3 compounds: report pIC50 for each.
1. CN(C1CC1)C1CCc2nc(NC(=O)c3cccc(Cn4cc(-c5ccc(C#N)cc5)nn4)c3)sc2C1 (centres unmarked)
2. N#Cc1ccc(-c2cnn(Cc3cccc(C(=O)Nc4nc5c(s4)CC(N4CCCC(F)(F)C4)CC5)c3)c2)cc1 (centres unmarked)
3. CN1CCc2nc(NC(=O)c3cccc(CN4CCN(c5ccc(C#N)cc5)C4=O)c3)sc2C1

8.14
8.14
8.32

---

For each entry below, report its IC50 value.
Target: ROCKII (1-543) (Homo sapiens)
Test: Luciferin-Luciferase Assay (PKLight ATP detection)
Assay type: biochemical
Design: ROCKII (1-543) (62,408 Da) was diluted in assay buffer
Details: 7.5 nM ROCKII (1-543), 750 nM ATP
Counter-ions that a name gives are not always drawn.
Numbers only, in nM.

Examples with their reported IC50 follow.
molecule="N#Cc1ccc(-c2cn(Cc3cccc(C(=O)Nc4nc5c(s4)CC(NCC(F)F)CC5)c3)nn2)cc1 (centres unmarked)" measuredtarget="ROCKII (1-543) (Homo sapiens)" quantityname=IC50 recordednumber=9.4
molecule="N#Cc1ccc(-c2cnn(Cc3cccc(C(=O)Nc4nc5c(s4)CC(N4CCC(F)(F)C4)CC5)c3)c2)cc1 (centres unmarked)" measuredtarget="ROCKII (1-543) (Homo sapiens)" quantityname=IC50 recordednumber=8.5
molecule=CN1CCc2nc(NC(=O)c3cccc(Cn4cc(-c5ccc(C#N)cc5)nn4)c3)sc2C1 measuredtarget="ROCKII (1-543) (Homo sapiens)" quantityname=IC50 recordednumber=2.8
molecule="C[C@@H]1CN(C2CCc3nc(NC(=O)c4cccc(Cn5cc(-c6ccc(C#N)cc6)cn5)c4)sc3C2)C[C@H](C)O1 (some centres unmarked)" measuredtarget="ROCKII (1-543) (Homo sapiens)" quantityname=IC50 recordednumber=4.3
molecule=COCCN[C@H]1CCc2nc(NC(=O)c3cccc(Cn4cc(-c5ccc(C#N)cc5)cn4)c3)sc2C1 measuredtarget="ROCKII (1-543) (Homo sapiens)" quantityname=IC50 recordednumber=2.1

Batch of 6 molecules: report IC50 for each.
1. N#Cc1cccc(-c2ccnc(Cc3cccc(C(=O)Nc4nc5c(s4)C[C@@H](N4CCOCC4)CC5)c3)n2)c1
2. CN(C1CC1)C1CCc2nc(NC(=O)c3cccc(Cn4cc(-c5ccc(C#N)cc5)cn4)c3)sc2C1 (centres unmarked)
3. CN(CCC#N)[C@H]1CCc2nc(NC(=O)c3cccc(Cn4cc(-c5ccc(C#N)cc5)nn4)c3)sc2C1
4. COCCN(C)C1CCc2nc(NC(=O)c3cccc(Cn4cc(-c5ccc(C#N)cc5)nn4)c3)sc2C1 (centres unmarked)
5. N#Cc1ccc(-c2nnc(Cc3cccc(C(=O)Nc4nc5c(s4)C[C@@H](N4CCOCC4)CC5)c3)s2)cc1
6. N#Cc1ccc(-c2cnn(Cc3cccc(C(=O)Nc4nc5c(s4)CC(N4CCC(F)(F)CC4)CC5)c3)c2)cc1 (centres unmarked) [Compound 15, trifluoroacetate]

[9.9, 4.5, 2.9, 3.1, 2.5, 4.6]
